Cited source: patent US20110251188A1

# Measured target: GST-Bcl-2 protein (Homo sapiens, UniProt P10415)
# Sequence (P10415 whole entry): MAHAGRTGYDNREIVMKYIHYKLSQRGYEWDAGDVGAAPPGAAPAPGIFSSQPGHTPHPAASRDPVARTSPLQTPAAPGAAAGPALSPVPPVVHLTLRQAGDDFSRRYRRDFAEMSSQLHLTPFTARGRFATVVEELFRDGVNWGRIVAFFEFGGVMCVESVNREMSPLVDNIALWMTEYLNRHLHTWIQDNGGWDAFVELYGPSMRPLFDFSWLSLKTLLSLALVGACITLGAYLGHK
// assign 1 if Ki falls strictly below 600 nM, else 0 (ties count as 0)

Smiles	Classification
N#CC1=C2C(=NC1=O)c1c(OCc3cccs3)ccc3cccc2c13	1
N#CC1=C2C(=NC1=O)c1c(Sc3ccc(N)cc3)ccc3cccc2c13	1
N#CC1=C2C(=NC1=O)c1ccc(Oc3ccccc3)c3cccc2c13	0
N#CC1=C2C(=NC1=O)c1c(Sc3ccc(Br)cc3)ccc3c(Sc4ccc(Br)cc4)ccc2c13	1

###

# Assay explanation: phase solubility experiment (solubility in water before and after cyclodextrin inclusion or complexation)
# Test parameters: thermodynamic from solid, Solubility of compounds, Table 1, compound per se, before inclusion

Smiles	Value units	solubility
Cc1ccc(Oc2ccc3c4c(cccc24)C2=NC(=O)C(C#N)=C23)cc1	µM	0.25
CC(C)c1ccc(Oc2ccc3c4c(cccc24)C2=C(C#N)C(=O)N=C23)cc1	µM	0.12
N#CC1=C2C(=NC1=O)c1cccc3c(Sc4ccccc4)ccc2c13	µM	0.22
COc1ccc(Oc2ccc3c4c(cccc24)C2=NC(=O)C(C#N)=C23)cc1	µM	0.32
N#CC1=C2C(=NC1=O)c1cccc3c(Sc4ccc(N)cc4)ccc2c13	µM	0.25
N#CC1=C2C(=NC1=O)c1cccc3cccc2c13	µM	0.12
N#CC1=C2C(=NC1=O)c1c(Sc3ccc(Br)cc3)ccc3c(Sc4ccc(Br)cc4)ccc2c13	µM	0.16
N#CC1=C2C(=NC1=O)c1c(Sc3ccc(N)cc3)ccc3c(Sc4ccc(N)cc4)ccc2c13	µM	0.31
N#CC1=C2C(=NC1=O)c1c(Sc3ccc(N)cc3)ccc3cccc2c13	µM	0.28

###

# Assay explanation: phase solubility experiment (solubility in water before and after cyclodextrin inclusion or complexation)
# Test parameters: thermodynamic from solid, Solubility of compounds, Table 2, compound per se, before complexation

Smiles	solubility (µM)
O=C(O)C1=C2C(=NC1=O)c1cccc3c(Sc4ccc(Br)cc4)ccc2c13	0.55

###

# Measured target: interaction between Bcl-2 and Bax (Homo sapiens, UniProt P10415)
# Construct: expressed in transfected cells; host or cells: Hela cells
# Sequence (P10415 whole entry): as above
# Assay explanation: intracellular fluorescence polarization energy transfer (FRET), Hela cells transfected with Bcl-2-CFP and Bax-YFP
# Format: cell-based
# Test parameters: goes with the concentration of E11
Value kind: Time for which the compound interfered with the interaction between Bcl-2 and Bax (h)

Smiles	Readout number
N#CC1=C2C(=NC1=O)c1cccc3cccc2c13	2
N#CC1=C2C(=NC1=O)c1c(Sc3ccc(N)cc3)ccc3c(Sc4ccc(N)cc4)ccc2c13	2
N#CC1=C2C(=NC1=O)c1cccc3c(Sc4ccc(Br)cc4)ccc2c13	2
N#CC1=C2C(=NC1=O)c1cccc3c(C(=O)c4cccc(F)c4)ccc2c13	6
N#CC1=C2C(=NC1=O)c1c(Sc3ccc(N)cc3)ccc3cccc2c13	2
N#CC1=C2C(=NC1=O)c1c(OCc3cccs3)ccc3cccc2c13	6
N#CC1=C2C(=NC1=O)c1cccc3c(N4CCSCC4)ccc2c13	3
N#CC1=C2C(=NC1=O)c1c(Sc3ccc(Br)cc3)ccc3c(Sc4ccc(Br)cc4)ccc2c13	2
N#CC1=C2C(=NC1=O)c1ccc(Oc3ccccc3)c3cccc2c13	6
